Value source: the supplement of paper PMC6757056

Exercise: for every item that follows, state its recorded normalized RNA/DNA level without ligand (log10).
B1: library; a variant is named by its letters at N, in order (parent)
chain: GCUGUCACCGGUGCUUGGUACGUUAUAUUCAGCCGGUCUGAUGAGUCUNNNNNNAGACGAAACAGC

# Variants of: B1
# PROTOCOL TEXT: normalized RNA/DNA level without ligand (relative to sTRSVctl = 100) (log10 (% of sTRSVctl)); HEK293T overexpressing SLC46A1; higher = less ribozyme self-cleavage, higher mRNA level
# RECORDED CONDITIONS: without (6R,S)-folinic acid; ligand present: no
Numbers only.

Solved entries (count: 5):
[
  {
    "VARIANT IDENTIFIER": "CUUGCC",
    "MEASURED RESULT": 2.03
  },
  {
    "VARIANT IDENTIFIER": "CUUACG",
    "MEASURED RESULT": 2.01
  },
  {
    "VARIANT IDENTIFIER": "GGACAU",
    "MEASURED RESULT": 2.02
  },
  {
    "VARIANT IDENTIFIER": "CGAUCC",
    "MEASURED RESULT": 2.05
  },
  {
    "VARIANT IDENTIFIER": "ACUAAU",
    "MEASURED RESULT": 1.98
  }
]

Kindly give each listed record's normalized RNA/DNA level without ligand (log10).
1. GUUAAC
2. UUGGAU
3. GAUCCU
4. CUUUGC
5. CUUAUC
6. CCGUUA

Response:
1: 1.98; 2: 1.97; 3: 2.07; 4: 2.05; 5: 2.09; 6: 2
